Provenance of the data: patent US6803380B1

Overview of recorded melting point for various compounds
Report only the number, with the unit °C understood.

Would you please look over these solved cases?
COc1ccc(Cn2nc(C(F)(F)F)nc2-c2ccc(S(C)(=O)=O)cc2)cc1OC: 142
COc1ccc(-n2nc(C(F)(F)F)nc2-c2ccc(S(C)(=O)=O)cc2Cl)cc1: 148
CS(=O)(=O)c1ccc(-c2nc(C(F)(F)F)nn2C2CCCCC2)cc1: 136
Cc1nc(-c2ccc(S(C)(=O)=O)cc2)n(-c2ccc(F)c(F)c2)n1: 194
Cc1nc(-c2ccc(S(C)(=O)=O)cc2)n(-c2ccccc2Cl)n1: 170
Cc1nc(-c2ccc(S(C)(=O)=O)cc2)n(-c2ccc(F)cc2F)n1: 160
COc1ccc(-n2nc(C(F)(F)F)nc2-c2ccc(S(C)(=O)=O)cc2)cc1F: 180
Cc1nc(-c2ccc(S(C)(=O)=O)cc2)n(-c2ccc(Br)cc2)n1: 188

Form: compound = `COc1ccc(-n2nc(C)nc2-c2ccc(S(C)(=O)=O)cc2)cc1` ; melting point = 128

compound `COc1ccc(-n2nc(C(F)(F)F)nc2-c2ccc(S(C)(=O)=O)cc2)cc1OC` , melting point observed: 140

Entry `Cc1ccc(-n2nc(C)nc2-c2ccc(S(C)(=O)=O)cc2)cc1` , melting point reported as 176

Per the records, this compound ( `Cc1nc(-c2ccc(S(C)(=O)=O)cc2)n(-c2cccc(Cl)c2)n1` ) has melting point equal to 130

###

Below, each entry is listed alongside its reported % COX-1 inhibition.
# tgt: COX-1 (Ovis aries, UniProt P05979)
# Construct: Purified COX-1 from ram seminal vesicles; purchased Cayman Chemicals; host or cells: ram seminal vesicles (tissue-purified)
# Sequence (P05979 25-600): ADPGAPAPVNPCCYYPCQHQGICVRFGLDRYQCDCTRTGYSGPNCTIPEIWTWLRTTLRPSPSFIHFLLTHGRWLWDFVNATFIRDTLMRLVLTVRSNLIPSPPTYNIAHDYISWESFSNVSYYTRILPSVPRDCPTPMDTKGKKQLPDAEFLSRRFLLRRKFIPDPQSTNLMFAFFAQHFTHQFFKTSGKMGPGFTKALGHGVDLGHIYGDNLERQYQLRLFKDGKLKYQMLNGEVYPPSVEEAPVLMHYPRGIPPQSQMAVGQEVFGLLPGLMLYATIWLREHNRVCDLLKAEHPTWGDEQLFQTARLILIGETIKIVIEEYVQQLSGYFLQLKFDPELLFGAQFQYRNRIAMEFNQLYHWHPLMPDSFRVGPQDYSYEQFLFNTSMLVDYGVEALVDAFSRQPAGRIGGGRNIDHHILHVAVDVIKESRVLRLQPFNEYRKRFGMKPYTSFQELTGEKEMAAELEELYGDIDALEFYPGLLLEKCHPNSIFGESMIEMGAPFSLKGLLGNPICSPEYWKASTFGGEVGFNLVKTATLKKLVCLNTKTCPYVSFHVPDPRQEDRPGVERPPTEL
# experiment.notes: Inhibition of purified COX-1 activity in vitro (PGE2 by enzymo-immunoassay)
# Format: biochemical, ram
# condition: concentration 1 μM; negative sign = inhibition

Cc1nc(-c2ccc(S(C)(=O)=O)cc2)n(-c2ccc(N(C)C)cc2)n1: +2 ± 7.0%
COc1ccc(-n2nc(C(F)(F)F)nc2-c2ccc(S(C)(=O)=O)cc2)cc1: +8 ± 2.7%

Next molecule, please.
For CS(=O)(=O)Nc1ccc([N+](=O)[O-])cc1Oc1ccccc1 [Nimesulide, reference compound] the molecule record lists % COX-1 inhibition as +16 ± 12.2%
